In this section we review reported IC50 values for a set of compounds.
Target: Carnitine O-palmitoyltransferase 2, mitochondrial (Homo sapiens)
Sequence (P23786 whole entry): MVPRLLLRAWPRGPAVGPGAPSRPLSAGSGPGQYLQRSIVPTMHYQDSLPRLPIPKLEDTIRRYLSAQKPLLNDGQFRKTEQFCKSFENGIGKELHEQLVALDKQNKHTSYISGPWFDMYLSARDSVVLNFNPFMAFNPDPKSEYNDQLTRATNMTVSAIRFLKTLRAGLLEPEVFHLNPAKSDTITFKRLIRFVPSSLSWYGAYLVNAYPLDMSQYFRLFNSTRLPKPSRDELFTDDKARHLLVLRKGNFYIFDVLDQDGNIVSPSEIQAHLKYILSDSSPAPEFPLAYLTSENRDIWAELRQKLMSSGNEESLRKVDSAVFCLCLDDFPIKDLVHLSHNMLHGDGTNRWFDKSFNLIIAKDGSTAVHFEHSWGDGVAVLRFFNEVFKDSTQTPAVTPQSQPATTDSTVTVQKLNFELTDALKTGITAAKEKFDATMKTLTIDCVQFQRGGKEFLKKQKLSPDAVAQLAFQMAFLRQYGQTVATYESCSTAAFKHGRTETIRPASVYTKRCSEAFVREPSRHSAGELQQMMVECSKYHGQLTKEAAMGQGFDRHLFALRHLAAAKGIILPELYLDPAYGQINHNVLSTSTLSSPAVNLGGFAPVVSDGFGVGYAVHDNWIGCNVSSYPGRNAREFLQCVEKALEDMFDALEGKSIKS

>  <COMPOUND>
O=C([C@H]1CCCCN1C(=O)COc1ccccc1)N1CCN(c2ncccn2)CC1

>  <ASSAY SYSTEM>
Carnitine O-palmitoyltransferase 2, mitochondrial (Homo sapiens)

>  <LT GT EQ>
=

>  <IC50 / µM>
1.56

$$$$
>  <COMPOUND>
COc1ccc(Cl)cc1S(=O)(=O)N1CCSc2ccc(C(=O)Nc3nc(CC(=O)O)cs3)cc21

>  <ASSAY SYSTEM>
Carnitine O-palmitoyltransferase 2, mitochondrial (Homo sapiens)

>  <LT GT EQ>
>

>  <IC50 / µM>
100

$$$$
>  <COMPOUND>
COc1ccc(Cl)cc1S(=O)(=O)N1CCOc2ccc(C(=O)Nc3ccc(CC(=O)O)cc3)cc21

>  <ASSAY SYSTEM>
Carnitine O-palmitoyltransferase 2, mitochondrial (Homo sapiens)

>  <LT GT EQ>
>

>  <IC50 / µM>
100

$$$$
>  <COMPOUND>
O=C1COc2ccc(-c3nc([C@H]4CCCCN4C(=O)COc4ccccc4)no3)cc2N1

>  <ASSAY SYSTEM>
Carnitine O-palmitoyltransferase 2, mitochondrial (Homo sapiens)

>  <LT GT EQ>
>

>  <IC50 / µM>
100

$$$$
>  <COMPOUND>
O=C(COc1ccccc1)N1CCCC[C@@H]1c1nc(-c2ccc(O)cc2)no1

>  <ASSAY SYSTEM>
Carnitine O-palmitoyltransferase 2, mitochondrial (Homo sapiens)

>  <LT GT EQ>
=

>  <IC50 / µM>
75.5

$$$$
>  <COMPOUND>
COc1ccc(Cl)cc1S(=O)(=O)N1CCOc2ccc(C(=O)Nc3ccc(C(=O)O)cc3)cc21

>  <ASSAY SYSTEM>
Carnitine O-palmitoyltransferase 2, mitochondrial (Homo sapiens)

>  <LT GT EQ>
=

>  <IC50 / µM>
26.7

$$$$
>  <COMPOUND>
O=C(COc1ccccc1)N1CCCCC1c1cc(=O)n(-c2ccc(F)cc2)[nH]1 (centres undefined)

>  <ASSAY SYSTEM>
Carnitine O-palmitoyltransferase 2, mitochondrial (Homo sapiens)

>  <LT GT EQ>
>

>  <IC50 / µM>
100

$$$$
>  <COMPOUND>
Cc1cc(-c2nc([C@H]3CCCCN3C(=O)COc3ccccc3)no2)n(C)n1

>  <ASSAY SYSTEM>
Carnitine O-palmitoyltransferase 2, mitochondrial (Homo sapiens)

>  <LT GT EQ>
=

>  <IC50 / µM>
16.3

$$$$
>  <COMPOUND>
COc1ccc(Cl)cc1S(=O)(=O)c1cn(CC(=O)O)c2ccc(C(=O)Nc3ccccc3)cc12

>  <ASSAY SYSTEM>
Carnitine O-palmitoyltransferase 2, mitochondrial (Homo sapiens)

>  <LT GT EQ>
>

>  <IC50 / µM>
100

$$$$
>  <COMPOUND>
CC(=O)Nc1cc(-c2nc([C@H]3CCCCN3C(=O)COc3ccccc3)no2)ccn1

>  <ASSAY SYSTEM>
Carnitine O-palmitoyltransferase 2, mitochondrial (Homo sapiens)

>  <LT GT EQ>
>

>  <IC50 / µM>
100

$$$$
>  <COMPOUND>
O=C(O)c1ccccc1CCc1ccc(NS(=O)(=O)c2ccc(Cl)cc2)cc1

>  <ASSAY SYSTEM>
Carnitine O-palmitoyltransferase 2, mitochondrial (Homo sapiens)

>  <LT GT EQ>
>

>  <IC50 / µM>
100

$$$$
>  <COMPOUND>
O=C(COc1ccccc1)N1CCNCC1c1nc(-c2ccc(N3CCOCC3)cc2)no1 (centres undefined)

>  <ASSAY SYSTEM>
Carnitine O-palmitoyltransferase 2, mitochondrial (Homo sapiens)

>  <LT GT EQ>
>

>  <IC50 / µM>
100

$$$$
>  <COMPOUND>
Cc1cc(-c2nc([C@H]3CCCCN3C(=O)COc3ccccc3)no2)no1

>  <ASSAY SYSTEM>
Carnitine O-palmitoyltransferase 2, mitochondrial (Homo sapiens)

>  <LT GT EQ>
>

>  <IC50 / µM>
100

$$$$
>  <COMPOUND>
COc1ccc(Cl)cc1CN1C(=O)OC(C)(C)c2ccc(C(=O)Nc3ccc(C(=O)O)c(Cl)c3)cc21

>  <ASSAY SYSTEM>
Carnitine O-palmitoyltransferase 2, mitochondrial (Homo sapiens)

>  <LT GT EQ>
=

>  <IC50 / µM>
4.06

$$$$
>  <COMPOUND>
O=C(COc1ccccc1)N1CCCC[C@@H]1c1nc(-c2ccc(Cl)nc2)cs1

>  <ASSAY SYSTEM>
Carnitine O-palmitoyltransferase 2, mitochondrial (Homo sapiens)

>  <LT GT EQ>
=

>  <IC50 / µM>
62.1

$$$$
>  <COMPOUND>
COc1ccc(Cl)cc1S(=O)(=O)Nc1cc(C(=O)Nc2ccc(C(=O)O)cc2)cc(OC)c1OC

>  <ASSAY SYSTEM>
Carnitine O-palmitoyltransferase 2, mitochondrial (Homo sapiens)

>  <LT GT EQ>
=

>  <IC50 / µM>
3.03

$$$$
>  <COMPOUND>
O=C(COc1ccccc1)N1CCCC[C@@H]1c1csc(-c2ccc(F)cc2)n1

>  <ASSAY SYSTEM>
Carnitine O-palmitoyltransferase 2, mitochondrial (Homo sapiens)

>  <LT GT EQ>
>

>  <IC50 / µM>
100

$$$$
>  <COMPOUND>
N#Cc1cccc(-c2nc([C@H]3CCCCN3C(=O)COc3ccccc3)no2)c1

>  <ASSAY SYSTEM>
Carnitine O-palmitoyltransferase 2, mitochondrial (Homo sapiens)

>  <LT GT EQ>
=

>  <IC50 / µM>
15.6

$$$$
>  <COMPOUND>
CC(=O)Nc1cccc(-c2n[nH]c([C@H]3CCCCN3C(=O)COc3ccccc3)n2)c1

>  <ASSAY SYSTEM>
Carnitine O-palmitoyltransferase 2, mitochondrial (Homo sapiens)

>  <LT GT EQ>
=

>  <IC50 / µM>
98.3

$$$$
